Target: recombinant NAMPT (Homo sapiens, UniProt P43490)
Construct: (CycLex NAMPT Colorimetric Assay Kit)
Sequence (P43490 whole entry): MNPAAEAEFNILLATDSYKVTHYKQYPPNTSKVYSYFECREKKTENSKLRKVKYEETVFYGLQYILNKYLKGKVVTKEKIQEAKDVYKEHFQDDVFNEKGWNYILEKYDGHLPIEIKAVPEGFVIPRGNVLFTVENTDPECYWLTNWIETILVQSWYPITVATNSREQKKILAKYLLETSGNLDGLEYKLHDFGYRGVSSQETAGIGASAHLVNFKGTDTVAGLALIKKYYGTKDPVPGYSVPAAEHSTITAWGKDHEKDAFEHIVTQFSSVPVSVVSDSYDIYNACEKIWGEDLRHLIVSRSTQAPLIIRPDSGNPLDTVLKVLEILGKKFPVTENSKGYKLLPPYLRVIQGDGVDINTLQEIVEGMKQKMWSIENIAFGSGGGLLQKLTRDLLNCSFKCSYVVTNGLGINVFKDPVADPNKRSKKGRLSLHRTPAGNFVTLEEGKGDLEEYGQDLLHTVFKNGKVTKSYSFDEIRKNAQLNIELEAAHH
Test: Enzymatic NAMPT assay (CycLex NAMPT colorimetric coupled-enzyme reaction system)
Conditions: titration curves of Figure 3a; coupled-enzyme colorimetric assay; read-out: IC50 (NAMPT inhibitory activity)
Readout Name: IC50 (nM)

I = O=C(NCCCCN1CCN(C(=O)c2ccccc2)CC1)c1cc2cnccc2[nH]1
II = O=C(NCCCCC1CCN(C(=O)c2ccccc2)CC1)c1cc2cnccc2[nH]1
# return whichever of I and II has the smaller IC50 Please reply using the label of the selected record.
II
